Origin of values: ChEMBL document CHEMBL3425496

- RUN DESCRIPTION: Apparent permeability of the compound at 50 uM after 5 hrs by PAMPA method
- Assay type: physicochemical
Square brackets hold non-standard residues; d marks the D form. Peptide text beside a SMILES is read from it. NMeT = CN[C@H](C(=O)O)[C@@H](C)O; Sar = CNCC(=O)O
The reader will find reported Papp at 5 h, 50 µM values listed item by item below.
Answer format: numeric, ×10⁻⁶ cm/s implied, no suffix.

Please review the entries below; each comes with its answer.
| MOLECULE | UNIT | Papp at 5 h, 50 µM |
| --- | --- | --- |
| CC(C)C[C@@H]1NC(=O)[C@H](Cc2ccccc2)N(C)C(=O)CN(C)C(=O)[C@H](C)NC(=O)[C@H](Cc2ccc(O)cc2)N(C)C(=O)[C@H]2CCCN2C1=O | ×10⁻⁶ cm/s | 0.35 |
| C[C@@H](O)[C@@H]1NC(=O)[C@@H](CCCCN)NC(=O)[C@@H](Cc2c[nH]c3ccccc23)NC(=O)[C@H](Cc2ccccc2)NC(=O)[C@@H]2CCCN2C(=O)[C@@H](Cc2ccccc2)NC1=O | ×10⁻⁶ cm/s | 0.09 |
| CC(C)C[C@@H]1NC(=O)[C@H](Cc2ccc(O)cc2)NC(=O)[C@@H]2CCCN2C(=O)[C@H]2CCCN2C(=O)[C@@H](CC(C)C)NC(=O)[C@H](CC(C)C)NC1=O | ×10⁻⁶ cm/s | 0.09 |
| CC(C)C[C@@H]1NC(=O)[C@H](Cc2c[nH]c3ccccc23)NC(=O)[C@@H]2CCCN2C(=O)[C@H]2CCCN2C(=O)[C@@H](CC(C)C)NC(=O)[C@H](CC(C)C)NC1=O | ×10⁻⁶ cm/s | 0.19 |

Next, consider the following molecule.
Which Papp at 5 h, 50 µM value belongs to CC(C)C[C@@H]1NC(=O)[C@H](Cc2ccccc2)NC(=O)[C@H]([C@@H](C)O)N(C)C(=O)CN(C)C(=O)[C@H]([C@@H](C)O)NC(=O)[C@H](Cc2ccc(O)cc2)NC1=O (cyclo(FLYT[Sar][NMeT])) ?
0.01
